Cited source for all entries: PubChem BioAssay (Tox21)

Assay: qHTS RealTime-Glo MT Cell Viability Assay in HEK293 cells - 24 hour (AID 1224886); also: nearly all actives have a fitted effect of over 50% in size
Details: RealTime-Glo luminescence; series mostly up to 76.8 µM
Text: National Center for Advancing Translational Sciences [NCATS] NIH Chemical Genomics Center [NCGC] U.S. Environmental Protection Agency [EPA] National Institutes of Environmental Health Sciences [NIEHS] National Toxicology Program [NTP] U.S. Food and Drug Administration [FDA] Measure of cell viability is critical in the cell-base assay. Analysis of cell viability is necessary for the characterization of cell responses to cytotoxic drugs and environmental stress. […]
Records with an inconclusive call do not appear. Activity calls are given as the source filed them. Calls follow the shape of the dose curve; as a rule, active = well fitted cell-killing curve with a large enough effect in the repeat runs; inconclusive = weak or mixed curves, or effect the other way; inactive = flat fitted curve, though single readings scatter.
In this exercise, the only acceptable responses are active, inactive

# compound, class
data = [
    ("COP(=S)(OC)Oc1ccc(S(=O)(=O)N(C)C)cc1", "inactive"),
    ("CC(C)CON=O", "inactive"),
    ("CNC(=O)Oc1cccc2c1OC(C)(C)C2", "inactive"),
    ("CCC1(c2ccc(N)cc2)CCC(=O)NC1=O (centres undefined)", "inactive"),
    ("CC1(C)C(C(=O)OC(C#N)c2cccc(Oc3ccccc3)c2)C1(C)C (centres undefined)", "inactive"),
]

Query block: For ClCc1ccccn1 , which call appears in the assay record?
Result block: inactive

Query block: For CCOP(=S)(OCC)SCSC(C)(C)C , which call appears in the assay record?
Result block: inactive

Query block: For Nc1ccc2ccccc2c1 , which call appears in the assay record?
Result block: inactive

Query block: For CC(C)COC(=O)c1ccccc1C(=O)OCC(C)C , which call appears in the assay record?
Result block: inactive

Query block: For N#Cc1nn(-c2c(Cl)cc(C(F)(F)F)cc2Cl)c(N)c1S(=O)C(F)(F)F (centres undefined) , which call appears in the assay record?
Result block: active

Query block: For COC(=O)Nc1nc2ccccc2[nH]1 , which call appears in the assay record?
Result block: inactive

Query block: For CC(C)=CC1C(C(=O)OCc2cccc(Oc3ccccc3)c2)C1(C)C (centres undefined) , which call appears in the assay record?
Result block: inactive

Query block: For ClC(Cl)=C(Cl)C(Cl)=C(Cl)Cl , which call appears in the assay record?
Result block: inactive

Query block: For CC1CC(=O)O1 (centres undefined) , which call appears in the assay record?
Result block: inactive
